This listing pairs compounds with measured pEC50.
# assay-target: Glutamate receptor 1 (Rattus norvegicus, UniProt P19490)
# Sequence (P19490 whole entry): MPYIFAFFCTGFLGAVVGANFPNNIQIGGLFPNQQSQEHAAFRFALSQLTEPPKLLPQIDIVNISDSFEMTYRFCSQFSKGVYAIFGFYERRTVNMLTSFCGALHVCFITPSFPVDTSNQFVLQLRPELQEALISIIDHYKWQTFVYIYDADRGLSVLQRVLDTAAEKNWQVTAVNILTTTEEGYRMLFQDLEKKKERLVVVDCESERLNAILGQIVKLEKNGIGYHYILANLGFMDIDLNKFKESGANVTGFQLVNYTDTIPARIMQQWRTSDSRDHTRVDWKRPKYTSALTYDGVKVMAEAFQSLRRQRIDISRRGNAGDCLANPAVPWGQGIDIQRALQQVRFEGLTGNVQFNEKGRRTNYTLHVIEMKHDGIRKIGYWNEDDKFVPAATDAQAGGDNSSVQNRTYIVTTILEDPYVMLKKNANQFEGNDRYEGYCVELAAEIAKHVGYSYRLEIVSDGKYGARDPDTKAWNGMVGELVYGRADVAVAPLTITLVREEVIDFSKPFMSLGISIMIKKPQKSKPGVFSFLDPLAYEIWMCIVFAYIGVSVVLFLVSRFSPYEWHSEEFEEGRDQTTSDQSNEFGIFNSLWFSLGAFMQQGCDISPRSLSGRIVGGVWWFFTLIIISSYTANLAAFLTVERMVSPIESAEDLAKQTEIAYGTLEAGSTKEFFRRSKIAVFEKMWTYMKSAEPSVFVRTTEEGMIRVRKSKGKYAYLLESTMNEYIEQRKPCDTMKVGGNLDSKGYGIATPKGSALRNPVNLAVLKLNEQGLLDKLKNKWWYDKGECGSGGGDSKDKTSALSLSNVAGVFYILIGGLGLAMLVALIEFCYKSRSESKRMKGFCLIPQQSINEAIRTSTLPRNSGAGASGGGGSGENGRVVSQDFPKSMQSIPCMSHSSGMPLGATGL
# assay-comment: Agonist activity at cyclothiazide-desensitized rat recombinant flop iGluR1 expressed in Xenopus laevis oocytes by two electrode voltage-clamp electrophysiology method
# Assay type: functional, cell-based, Oocyte
// pEC50 is dimensionless: -log10 of concentration (M)

pEC50 for N[C@@H](Cn1ccc(=O)[nH]c1=O)C(=O)O [(S)-WILLARDIINE] ?
4.94

***
pEC50 for N[C@@H](Cn1cc(I)c(=O)[nH]c1=O)C(=O)O ?
4.47

Now the compound N[C@@H](Cn1cc(Br)c(=O)[nH]c1=O)C(=O)O
5.55

Now the compound N[C@@H](Cn1c2c(c(=O)[nH]c1=O)CCC2)C(=O)O
4.60

====

# assay-target: UniProt:P19493
# assay-comment: Agonist activity at cyclothiazide-desensitized rat recombinant flip iGluR4 expressed in Xenopus laevis oocytes by two electrode voltage-clamp electrophysiology method
This listing pairs molecules with measured pEC50.
// pEC50 is dimensionless: -log10 of concentration (M)

Solved cases (2 shown):
pEC50 for N[C@@H](Cn1c(=O)[nH]c(=O)c2sccc21)C(=O)O ?
4.05

Now the molecule N[C@@H](Cn1c2c(c(=O)[nH]c1=O)CSC2)C(=O)O
4.62

***
pEC50 for N[C@@H](Cn1cc(F)c(=O)[nH]c1=O)C(=O)O ?
4.92

====

# assay-target: Glutamate receptor ionotropic, kainate 1 (Rattus norvegicus)
# Sequence (P22756 whole entry): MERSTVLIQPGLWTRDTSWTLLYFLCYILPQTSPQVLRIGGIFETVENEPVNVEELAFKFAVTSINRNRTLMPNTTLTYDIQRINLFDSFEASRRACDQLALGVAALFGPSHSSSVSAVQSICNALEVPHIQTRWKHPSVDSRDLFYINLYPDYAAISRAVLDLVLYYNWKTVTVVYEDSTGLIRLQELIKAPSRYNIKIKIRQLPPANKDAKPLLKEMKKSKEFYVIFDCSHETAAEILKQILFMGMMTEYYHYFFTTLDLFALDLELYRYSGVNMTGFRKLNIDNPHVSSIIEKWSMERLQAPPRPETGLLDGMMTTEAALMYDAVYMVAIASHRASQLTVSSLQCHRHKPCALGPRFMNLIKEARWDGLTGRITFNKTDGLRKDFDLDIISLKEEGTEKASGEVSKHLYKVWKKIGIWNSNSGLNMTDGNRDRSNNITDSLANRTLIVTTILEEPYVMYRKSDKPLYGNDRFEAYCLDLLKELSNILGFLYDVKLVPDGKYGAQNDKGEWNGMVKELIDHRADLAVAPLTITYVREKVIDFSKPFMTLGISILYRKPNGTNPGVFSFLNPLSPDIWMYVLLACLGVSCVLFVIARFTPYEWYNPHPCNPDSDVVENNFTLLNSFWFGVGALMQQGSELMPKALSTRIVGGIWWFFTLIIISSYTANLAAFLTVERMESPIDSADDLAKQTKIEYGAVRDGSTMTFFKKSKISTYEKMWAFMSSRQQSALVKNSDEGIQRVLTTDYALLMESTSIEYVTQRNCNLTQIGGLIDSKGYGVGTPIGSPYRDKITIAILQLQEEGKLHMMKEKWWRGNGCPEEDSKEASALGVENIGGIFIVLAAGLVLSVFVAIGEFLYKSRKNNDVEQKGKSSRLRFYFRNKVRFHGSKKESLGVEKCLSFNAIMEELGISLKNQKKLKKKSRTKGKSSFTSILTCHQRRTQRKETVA
This listing pairs molecules with measured Ki.
Express your answer in µM, writing the number without its unit.

Ki for N[C@@H](Cn1c(=O)[nH]c(=O)c2cocc21)C(=O)O ?
2.98

***
Ki for N[C@@H](Cn1cc(Cl)c(=O)[nH]c1=O)C(=O)O ?
0.047

Now the molecule NC(Cn1cc(Br)c(=O)[nH]c1=O)C(=O)O (racemic)
0.0148

Now the molecule N[C@@H](Cn1cc(F)c(=O)[nH]c1=O)C(=O)O
1.38

====

# assay-target: Glutamate receptor 4 (Rattus norvegicus)
# Sequence (P19493 whole entry): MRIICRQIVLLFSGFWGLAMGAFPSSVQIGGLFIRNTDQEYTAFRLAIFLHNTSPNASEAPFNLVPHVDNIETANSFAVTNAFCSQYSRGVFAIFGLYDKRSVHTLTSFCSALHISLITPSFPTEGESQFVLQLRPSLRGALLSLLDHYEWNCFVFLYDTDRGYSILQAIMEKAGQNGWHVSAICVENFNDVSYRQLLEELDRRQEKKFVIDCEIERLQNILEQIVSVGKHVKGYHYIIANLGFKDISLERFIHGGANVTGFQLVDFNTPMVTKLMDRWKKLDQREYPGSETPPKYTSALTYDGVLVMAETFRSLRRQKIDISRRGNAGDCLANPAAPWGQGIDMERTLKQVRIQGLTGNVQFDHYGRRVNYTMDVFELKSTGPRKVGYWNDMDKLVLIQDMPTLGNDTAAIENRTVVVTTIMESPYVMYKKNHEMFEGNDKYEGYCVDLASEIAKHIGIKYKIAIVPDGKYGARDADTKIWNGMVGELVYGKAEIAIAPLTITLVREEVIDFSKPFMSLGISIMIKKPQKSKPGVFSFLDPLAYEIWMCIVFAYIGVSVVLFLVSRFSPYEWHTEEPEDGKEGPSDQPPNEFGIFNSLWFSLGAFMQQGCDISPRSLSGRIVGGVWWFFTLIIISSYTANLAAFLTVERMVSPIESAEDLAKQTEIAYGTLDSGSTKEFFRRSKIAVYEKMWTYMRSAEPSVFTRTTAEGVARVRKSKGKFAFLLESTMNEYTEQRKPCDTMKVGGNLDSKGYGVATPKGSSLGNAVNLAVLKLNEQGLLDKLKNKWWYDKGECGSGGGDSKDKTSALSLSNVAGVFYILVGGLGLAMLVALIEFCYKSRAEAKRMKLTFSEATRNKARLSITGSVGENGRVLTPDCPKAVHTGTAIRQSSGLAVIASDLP
quantity: pKi
// pKi is dimensionless: -log10 of concentration (M)

pKi for N[C@@H](Cn1c2c(c(=O)[nH]c1=O)CCC2)C(=O)O ?
5.68

Next item in the queue.
pKi for NC(Cn1ccc(=O)[nH]c1=O)C(=O)O (stereo not drawn) ?
4.85

====

# assay-target: Glutamate receptor ionotropic, kainate 1 (Homo sapiens, UniProt P39086)
# assay-comment: Antagonist activity at human iGluR5(Q)1b expressed in CHO-K1 cells by whole cell patch-clamp method
quantity: IC50 (nM)
Express your answer in nM, writing the number without its unit.

IC50 for N[C@@H](Cn1c2c(c(=O)[nH]c1=O)CSC2)C(=O)O ?
3.8

====

# assay-target: Glutamate receptor 2 (Rattus norvegicus)
# Sequence (P19491 whole entry): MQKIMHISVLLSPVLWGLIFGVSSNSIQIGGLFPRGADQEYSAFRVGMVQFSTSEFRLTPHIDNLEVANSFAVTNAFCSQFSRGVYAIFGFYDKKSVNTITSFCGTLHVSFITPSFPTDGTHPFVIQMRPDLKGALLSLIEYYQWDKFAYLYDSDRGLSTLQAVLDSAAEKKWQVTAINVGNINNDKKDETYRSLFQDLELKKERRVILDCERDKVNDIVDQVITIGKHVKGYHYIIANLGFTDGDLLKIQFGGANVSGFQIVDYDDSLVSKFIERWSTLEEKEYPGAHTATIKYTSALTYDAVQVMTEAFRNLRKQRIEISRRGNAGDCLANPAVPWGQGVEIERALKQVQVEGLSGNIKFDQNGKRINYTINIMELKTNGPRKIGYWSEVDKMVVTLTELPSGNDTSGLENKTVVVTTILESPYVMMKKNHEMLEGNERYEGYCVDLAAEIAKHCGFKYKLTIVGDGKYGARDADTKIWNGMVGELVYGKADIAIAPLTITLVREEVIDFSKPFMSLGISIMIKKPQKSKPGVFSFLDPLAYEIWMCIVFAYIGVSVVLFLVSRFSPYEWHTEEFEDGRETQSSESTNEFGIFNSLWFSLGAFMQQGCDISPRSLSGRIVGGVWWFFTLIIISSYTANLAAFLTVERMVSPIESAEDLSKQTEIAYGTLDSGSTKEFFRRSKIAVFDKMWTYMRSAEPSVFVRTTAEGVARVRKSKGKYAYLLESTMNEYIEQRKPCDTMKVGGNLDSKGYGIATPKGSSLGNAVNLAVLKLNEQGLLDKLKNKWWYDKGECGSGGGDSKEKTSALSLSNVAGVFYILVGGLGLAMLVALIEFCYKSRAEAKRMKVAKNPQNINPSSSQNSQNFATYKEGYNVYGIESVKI
quantity: pKi
// pKi is dimensionless: -log10 of concentration (M)

pKi for CC1(C)Cc2c(n(C[C@H](N)C(=O)O)c(=O)[nH]c2=O)C1 ?
6.90

Next item in the queue.
pKi for N[C@@H](Cn1c(=O)[nH]c(=O)c2sccc21)C(=O)O ?
6.95

====

As an illustration, consider measured Ki for molecules on Glutamate receptor 3 (Rattus norvegicus, UniProt P19492).
Sequence (P19492 whole entry): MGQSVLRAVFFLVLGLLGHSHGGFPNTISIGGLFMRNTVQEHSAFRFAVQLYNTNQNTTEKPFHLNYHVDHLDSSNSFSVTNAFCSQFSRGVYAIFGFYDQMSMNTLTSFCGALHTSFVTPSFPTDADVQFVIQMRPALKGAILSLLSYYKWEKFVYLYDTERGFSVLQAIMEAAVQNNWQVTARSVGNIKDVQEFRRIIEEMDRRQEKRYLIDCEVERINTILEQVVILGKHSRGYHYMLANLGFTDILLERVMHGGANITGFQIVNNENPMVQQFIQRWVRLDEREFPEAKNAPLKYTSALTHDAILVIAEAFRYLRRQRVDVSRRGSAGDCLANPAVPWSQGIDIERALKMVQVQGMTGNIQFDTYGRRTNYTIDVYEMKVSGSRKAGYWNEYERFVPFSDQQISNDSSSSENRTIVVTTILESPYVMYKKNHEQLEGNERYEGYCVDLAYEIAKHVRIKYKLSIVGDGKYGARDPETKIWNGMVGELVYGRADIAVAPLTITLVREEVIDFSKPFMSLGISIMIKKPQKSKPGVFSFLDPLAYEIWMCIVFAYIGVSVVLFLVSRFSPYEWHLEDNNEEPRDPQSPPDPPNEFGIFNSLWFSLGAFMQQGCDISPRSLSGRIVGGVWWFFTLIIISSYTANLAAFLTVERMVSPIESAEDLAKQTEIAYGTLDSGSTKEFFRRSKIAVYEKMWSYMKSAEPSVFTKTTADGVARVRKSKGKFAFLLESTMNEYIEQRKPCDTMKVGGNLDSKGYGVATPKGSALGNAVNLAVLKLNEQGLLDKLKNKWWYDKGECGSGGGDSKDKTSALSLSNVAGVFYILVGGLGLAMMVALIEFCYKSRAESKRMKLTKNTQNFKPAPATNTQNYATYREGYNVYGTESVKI
Express your answer in µM, writing the number without its unit.

Query for Glutamate receptor 3 (Rattus norvegicus, UniProt P19492): what Ki does the record show for N[C@@H](Cn1cc(I)c(=O)[nH]c1=O)C(=O)O ?
0.976

***
Query for Glutamate receptor 3 (Rattus norvegicus, UniProt P19492): what Ki does the record show for N[C@@H](Cn1cc(F)c(=O)[nH]c1=O)C(=O)O ?
0.07

Now the molecule N[C@@H](Cn1c2c(c(=O)[nH]c1=O)CSC2)C(=O)O
0.311

Now the molecule N[C@@H](Cn1c(=O)[nH]c(=O)c2sccc21)C(=O)O
0.936

All values here come from ChEMBL document CHEMBL1140154.
